System: S180 ascites
Test: Anti-tumor evaluation: % increase in life span (% ILS) and survivors, S180 ascites in female CFW Swiss mice
Assay type: in vivo
Details: dose 10 mg/kg; on day of evaluation
Method: The above-prepared compounds were evaluated against S180 ascites in female CFW Swiss mice. […] The effectiveness of a test compound was measured in terms of the % increase in life span (%ILS) of the test mice relative to the Normal Control (Calculated from the day of tumor inoculation, i.e., day zero). […] The %ILS was calculated as follows: [formula] […] All test compounds were evaluated in water containing 0.1-0.3% of the suspending agent "Klucel" (hydroxypropylcellulose). […]
The reader will find reported Survivors values listed item by item below.

Example entries and their recorded answers appear below.
molecule=N#C[S][Pd-2]1([S]C#N)[NH2+]CCC[NH2+]1 result="0 of 4"
molecule=N#C[S][Pd][S]C#N.NCCCCN result="0 of 6"
molecule=N#C[S][Pd]1([S]C#N)[NH]c2ccccc2[NH]1 result="0 of 4"

Find the recorded Survivors belonging to NCCN.O=N[O-].O=N[O-].[Pd+2] [Comp. Ex. F, Dinitro(Ethylenediamine)palladium(II)] and report it.
0 of 4

# query: Survivors of entry N#C[S][Pd][S]C#N.NC1CCCCC1N (centres unmarked)
0 of 4

Dear colleague, I am looking for the recorded Survivors of the following molecule: `NCCCN.O=[N+]([O-])[Pd][N+](=O)[O-]`
0 of 4

Which Survivors value is on record for `Cc1cc2c(cc1C)[NH][Pd]([S]C#N)([S]C#N)[NH]2` ?
0 of 6

Give its Survivors value. Item: `N#C[S][Pd-2]1([S]C#N)[NH2+]c2cccc3cccc(c23)[NH2+]1`
0 of 6
